- System name: T1, HLA-A*0201 molecule expressed on human T2 cells (human)
- T1 construct: also called HLA-A2
- Measurement protocol: T2 cells (HLA-A*0201), anti-HLA-A2 flow cytometry
Readout: binding result

1) VLAFVPLGV [CD37-B15] | binds
2) ILAFVPLYL [CD37-B12] | binds
3) FLAFVPLDV [CD37-B14] | binds
4) VLFGAPAYL [TNFRSF13C-B13] | binds
5) LLFGAPAGV [TNFRSF13C-B12] | binds

Here are 5 binders. What values of binding result were reported for them?
1. RVFEHPELV [CD22-B13]
2. LIFEHPERV [CD22-B12]
3. YMNSLSLAL (Printed as YMNSLSLAL) [MS4A1-B42]
4. AMNSLSLTV [MS4A1-B43]
5. FLFGAPASA [TNFRSF13C-B11]

A:
1. binds
2. binds
3. binds
4. binds
5. binds
